assayDetails: NCI Yeast Anticancer Drug Screen. Data for the mec2-1 strain (AID 157)
cond: S. cerevisiae mec2-1 strain, at 50.0 µM
This is part of a sample that, as a whole, favours compounds with a hit. Of some 79,000 tested, about 15% had one in any assay. Active and inactive are the calls of the source. Cut-off read from the data, not from the text of the source: active = growth inhibition above about 70%; inactive = the rest.
Hello, when you answer, please use one of the following outcomes: active, inactive

Exam item: Assay result, entry `Oc1c(Cl)c2ccccc2c2ccccc12` — outcome?
Marked response: active

Exam item: Assay result, entry `c1ccc(N=C2c3ccsc3C(=Nc3ccccc3)c3ccsc32)cc1` — outcome?
Marked response: active

Exam item: Assay result, entry `O=C(NNC(=O)c1cccc(C(=O)NNC(=O)c2ccc(Cl)c(Cl)c2)n1)c1ccc(Cl)c(Cl)c1` — outcome?
Marked response: inactive

Exam item: Assay result, entry `O=C1c2ccccc2C(=O)c2sc(Nc3cccc(Cl)c3)nc21` — outcome?
Marked response: active

Exam item: Assay result, entry `O=c1cc(CI)oc2ccccc12` — outcome?
Marked response: active

---

assayDetails: NCI Yeast Anticancer Drug Screen. Data for the mlh1 rad18 strain (AID 175)
cond: S. cerevisiae mlh1 rad18 strain growth inhibition; at 50.0 µM (retest, dose inferred, filed as 5.0); stronger effect = higher value
Procedure: Growth inhibition of yeast strains with defined genetic alterations is measured as a screen for potential anti-cancer activity. Selected strains with alterations in DNA damage repair or cell cycle control were exposed to compounds and growth inhibition was measured relative to vehicle treated controls. The strain used in this assay is mlh1 rad18
This is part of a sample that, as a whole, favours compounds with a hit. Of some 79,000 tested, about 15% had one in any assay.
Short version: growth inhibition at least 10% is 1, less is 0.

Exam item: Is it the case that `CCOC(=O)C(=O)Nc1ccc(Cl)cc1Cl` has growth inhibition reaching or exceeding 10%?
Marked response: 0

Exam item: Is it the case that C/C(=N/Nc1ccc([N+](=O)[O-])cc1[N+](=O)[O-])C1=CCC(C(C)(C)C)CC1 (configuration not stated) has growth inhibition reaching or exceeding 10%?
Marked response: 0

Exam item: Is it the case that `c1ccc(C[n+]2cccc(-c3cc4ccccc4[nH]3)c2)cc1` has growth inhibition reaching or exceeding 10%?
Marked response: 1

Exam item: Is it the case that `O=C(O)c1cc2cc3ccccc3cc2cc1O` has growth inhibition reaching or exceeding 10%?
Marked response: 1

Exam item: Is it the case that `C=CCNC(=O)NC1=CSC2=NC(=O)C3(NN12)c1ccccc1-c1ccccc13` has growth inhibition reaching or exceeding 10%?
Marked response: 1

Exam item: Is it the case that CN(Cc1cnc2nc(N)nc(N)c2n1)c1ccc(C(=O)NC(CCC(=O)O)C(=O)O)cc1 (configuration not stated) has growth inhibition reaching or exceeding 10%?
Marked response: 0

Exam item: Is it the case that `O=C1NC(=O)N(c2ccc(Cl)c(Cl)c2)C1=O` has growth inhibition reaching or exceeding 10%?
Marked response: 0

---

assayDetails: NCI Yeast Anticancer Drug Screen. Data for the mlh1 rad18 strain (AID 175)
cond: S. cerevisiae mlh1 rad18 strain growth inhibition; at 50.0 µM; stronger effect = higher value
This is part of a sample that, as a whole, favours compounds with a hit. Of some 79,000 tested, about 15% had one in any assay.
parameter: growth inhibition (%)
The answer is to be given in %; state only the numeric part.

Exam item: Provide measured growth inhibition value, entry: `Cc1ccc2nc(-[n+]3cc4ccccc4cc3C)ccc2c1`
Marked response: 87.3

Exam item: Provide measured growth inhibition value, entry: `CC1=NC(=Cc2ccc(Cl)cc2)C(=O)N1n1c(-c2ccccc2)nc2ccccc2c1=O`
Marked response: 81.5

Exam item: Provide measured growth inhibition value, entry: COc1ccc(C(SCC(N)C(=O)O)(c2ccc(OC)cc2)c2ccc(OC)cc2)cc1 (centres undefined)
Marked response: 96

Exam item: Provide measured growth inhibition value, entry: `CN(C)N=Nc1ccc(Cl)c2ncccc12`
Marked response: 6.75

Exam item: Provide measured growth inhibition value, entry: O=C(O)C(Br)C(Br)c1ccccc1[N+](=O)[O-] (centres undefined)
Marked response: 92

Exam item: Provide measured growth inhibition value, entry: `C/C(=N\NC(=S)N(C)C1CCCCC1)c1ccc2ccccc2n1`
Marked response: 89.2

Exam item: Provide measured growth inhibition value, entry: `CN(C)CCCNc1ccc(O)c2sc3ccccc3c(=O)c12`
Marked response: 72

Exam item: Provide measured growth inhibition value, entry: CC(C)CC(NC(=O)COc1c(Cl)cc(Cl)c(Cl)c1Cl)C(=O)O (centres undefined)
Marked response: 25.9

Exam item: Provide measured growth inhibition value, entry: `OCc1cccc2c1Oc1ccccc1S2`
Marked response: 2.9

Exam item: Provide measured growth inhibition value, entry: `O=[N+]([O-])c1ccc(C2=CSc3ccccc3N2)cc1`
Marked response: 58.2

Exam item: Provide measured growth inhibition value, entry: `CC(=O)c1c(C)n(C)c2c1nnc1ccccc12`
Marked response: 68.4

Exam item: Provide measured growth inhibition value, entry: `COCCCNC(=O)SC`
Marked response: 19.1

Exam item: Provide measured growth inhibition value, entry: `CCCCCCCCC1CCNCC1`
Marked response: 89.8

Exam item: Provide measured growth inhibition value, entry: `ON=C1c2ccccc2-c2ccccc21`
Marked response: 71.7

Exam item: Provide measured growth inhibition value, entry: `CC(C)C(=O)NNc1ccccc1`
Marked response: 83.2

Exam item: Provide measured growth inhibition value, entry: `CC(=O)O[C@H]1CC[C@H]2[C@@H]3CCc4cc(O)c(I)cc4[C@H]3CC[C@]12C`
Marked response: 63.4

Exam item: Provide measured growth inhibition value, entry: NC(CCCNc1nc(O)cc(=O)[nH]1)C(=O)O (centres undefined)
Marked response: -5

Exam item: Provide measured growth inhibition value, entry: `O=C(CBr)c1ccc2cc(Br)c3ccccc3c2c1`
Marked response: 61

Exam item: Provide measured growth inhibition value, entry: CN(Cc1cnc2nc(N)nc(N)c2n1)c1ccc(C(=O)NC(CCC(=O)O)C(=O)O)cc1 (centres undefined)
Marked response: 25.1

Exam item: Provide measured growth inhibition value, entry: `CCN(CC)c1ccc(SC#N)cc1`
Marked response: 93.6

Exam item: Provide measured growth inhibition value, entry: `COC(=O)c1[nH]c(=O)c(C#N)c(C(=O)OC)c1C(=O)c1ccc(Cl)c(Cl)c1`
Marked response: 93.9

Exam item: Provide measured growth inhibition value, entry: Brc1ccc(C2SCc3nc4ccccc4n32)cc1 (centres undefined)
Marked response: 78.7

Exam item: Provide measured growth inhibition value, entry: `Nc1ccc(S(=O)(=O)Nc2nc3ccccc3nc2N2CCCCCC2)cc1`
Marked response: 85.6

Exam item: Provide measured growth inhibition value, entry: `O=C(/C=C/C=C/c1ccccc1)c1ccco1`
Marked response: 76

Exam item: Provide measured growth inhibition value, entry: `O=S(=O)(Nc1ccnn1-c1ccccc1)c1ccc(N=Cc2c3ccccc3nc3cc(Cl)ccc23)cc1`
Marked response: 97.5

Exam item: Provide measured growth inhibition value, entry: `CC(=O)/C(=C\c1ccccc1Cl)C(=O)CCN(C)C`
Marked response: 80.8

Exam item: Provide measured growth inhibition value, entry: `[NH-]c1ccccc1[S-].[NH-]c1ccccc1[S-].[Zn]`
Marked response: 99.2

Exam item: Provide measured growth inhibition value, entry: `O=C(Cl)c1cc(-c2ccc(Cl)cc2)nc2c(Cl)cccc12`
Marked response: 87.2

Exam item: Provide measured growth inhibition value, entry: `Cc1c2c(c(C)c3ccncc13)S(=O)(=O)c1ccccc1-2`
Marked response: 79.9

Exam item: Provide measured growth inhibition value, entry: `C/C(=N\NC(=S)N1CCN(Cc2ccccc2)CC1)c1ccccn1`
Marked response: 81.6

Exam item: Provide measured growth inhibition value, entry: Cc1ccc(C)c(N2C(=O)C(=O)C(c3nc4ccccc4o3)/C(=N\NC(=O)c3ccccc3O)C2=O)c1 (centres undefined)
Marked response: 71.9

Exam item: Provide measured growth inhibition value, entry: `Cc1ccc(C(=Nc2ccccc2)N=P(c2ccccc2)(c2ccccc2)c2ccccc2)cc1`
Marked response: 91.5

Exam item: Provide measured growth inhibition value, entry: `Nc1nc2nc(I)[nH]c2c(=O)[nH]1`
Marked response: 10.9

Exam item: Provide measured growth inhibition value, entry: `O=C1NN(C2=NNC3(C(=O)N2)c2ccccc2-c2ccccc23)C(c2ccccc2)=N/C1=C/c1ccc(O)cc1`
Marked response: 83.2

Exam item: Provide measured growth inhibition value, entry: `CCOC(=O)c1c(-c2ccccc2)csc1NC(=O)CBr`
Marked response: 99.2

Exam item: Provide measured growth inhibition value, entry: `C/C(CCSCc1ccccc1)=N/NC(N)=S`
Marked response: 66.7

Exam item: Provide measured growth inhibition value, entry: `CC(=O)OCC(=O)[C@@]1(O)[C@H](C)C[C@H]2[C@@H]3C=C(C)C4=Cc5c(cnn5-c5ccccc5)C[C@]4(C)[C@@]3(F)[C@@H](O)C[C@@]21C`
Marked response: 87.7

Exam item: Provide measured growth inhibition value, entry: `O=C(O)CCCCC1CCCCC1.[Cu+2]`
Marked response: 1.85

Exam item: Provide measured growth inhibition value, entry: `CCOC(=O)C[n+]1c(C)cc(-c2ccccc2)cc1C`
Marked response: 7.55
